Provide the reported intrinsic activity, normal system (cAMP) of each item.
- measured_target: human melanocortin 4 receptor (human, UniProt P32245 1-332)
- Sequence (P32245 whole entry): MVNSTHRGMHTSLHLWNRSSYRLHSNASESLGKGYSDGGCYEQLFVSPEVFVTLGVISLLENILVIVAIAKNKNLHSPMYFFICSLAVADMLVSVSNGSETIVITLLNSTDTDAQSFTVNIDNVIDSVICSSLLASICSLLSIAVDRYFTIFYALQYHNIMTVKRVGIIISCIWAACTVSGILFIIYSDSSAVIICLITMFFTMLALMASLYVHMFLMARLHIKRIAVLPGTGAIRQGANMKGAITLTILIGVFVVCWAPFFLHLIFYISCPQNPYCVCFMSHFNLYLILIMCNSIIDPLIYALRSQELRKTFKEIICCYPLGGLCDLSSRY
- assay_method_text: cell-based or functional assay
Starred links: 1 amine or outer side, 2 acyl side, 3 side chain; linkers in the order of their positions; H or OH if unused. Positions of bridges follow the written chain, without caps; N, C: chain ends. Non-standard residues stand in square brackets, D forms with d. No end group written: not given here. Ser(Bzl) = O-benzyl-serine, O=C([C@H](COCc1ccccc1)N[*:1])[*:2]; dPhe(4-Cl) = N[C@H](Cc1ccc(Cl)cc1)C(=O)O; 1Nal = N[C@@H](Cc1cccc2ccccc12)C(=O)O; Nle = CCCC[C@H](N)C(=O)O; Ahp = NCCCCCCC(=O)O
Answers are plain numbers.

// known answers, use as guide
binder	intrinsic activity, normal system (cAMP)
Ac-DH[dF]RWK-NHEt (lactam 1-6, also called Compound No. 40) [Ac-cyclo(-Asp-His-D-Phe-Arg-Trp-Lys)-NH-CH2-CH3]	0.6
Ac-[Nle]DW[dF]R[1Nal]K-NMe2 (lactam 2-7, also called Compound No. 36) [Ac-Nle-cyclo(-Asp-Trp-D-Phe-Arg-Nal 1-Lys)-N(CH3)2]	0.8
Ac-[Nle]DW[dF]R[1Nal]K-NHEt (lactam 2-7; SMILES CCCC[C@H](NC(C)=O)C(=O)N[C@H]1CC(=O)NCCCC[C@@H](C(=O)NCC)NC(=O)[C@H](Cc2cccc3ccccc23)NC(=O)[C@H](CCCNC(=N)N)NC(=O)[C@@H](Cc2ccccc2)NC(=O)[C@H](Cc2c[nH]c3ccccc23)NC1=O, also called Compound No. 38) [Ac-Nle-cyclo(-Asp-Trp-D-Phe-Arg-Nal 1-Lys)-NH-CH2-CH3]	0.6

For the next question, use this binder.
Reported intrinsic activity, normal system (cAMP), binder [Ahp][Ser(Bzl)][dPhe(4-Cl)]RW-NH2 (N-terminus assumed; SMILES N=C(N)NCCC[C@H](NC(=O)[C@@H](Cc1ccc(Cl)cc1)NC(=O)[C@H](COCc1ccccc1)NC(=O)CCCCCCN)C(=O)N[C@@H](Cc1c[nH]c2ccccc12)C(N)=O, also called Compound No. 1) [NH2-(CH2)6-C(=O)-Ser(Bzl)-(D)Phe(4-Cl)-Arg-Trp-NH2] : ____ 0.32
